# TARGET_OR_TEST_SYSTEM: human Oxytocin (OTR) receptor (Homo sapiens)
# Construct: expressed in transfected cells
# Sequence (P30559 whole entry): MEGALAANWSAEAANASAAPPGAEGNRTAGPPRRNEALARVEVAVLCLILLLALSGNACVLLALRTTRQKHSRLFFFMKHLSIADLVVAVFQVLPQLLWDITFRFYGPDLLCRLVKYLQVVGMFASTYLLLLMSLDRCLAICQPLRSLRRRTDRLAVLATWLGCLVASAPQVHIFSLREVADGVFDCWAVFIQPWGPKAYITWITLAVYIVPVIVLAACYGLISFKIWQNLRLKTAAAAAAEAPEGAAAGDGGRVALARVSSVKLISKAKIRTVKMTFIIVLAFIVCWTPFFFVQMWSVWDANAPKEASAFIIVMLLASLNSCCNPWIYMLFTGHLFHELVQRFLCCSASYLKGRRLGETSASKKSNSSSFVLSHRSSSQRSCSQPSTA
# EXPERIMENTAL_PROTOCOL: Calcium flux assay (FLIPR), agonist mode, CHO cells expressing human OTR
# Format: cell-based
# CONDITION_SUMMARY: CHO; maximum response normalized to endogenous full agonist = 100%; read-out: hOT efficacy (%)
Positions of bridges follow the written chain, without caps; N, C: chain ends. Non-standard residues stand in square brackets, D forms with d. Residues, ends and D or L forms follow the SMILES beside them. Tle = CC(C)(C)[C@H](N)C(=O)O; Aze = O=C(O)[C@@H]1CCN1; Dab = NCC[C@H](N)C(=O)O; Dap = NC[C@H](N)C(=O)O; Aib = CC(C)(N)C(=O)O; Sar = CNCC(=O)O
Property: Emax; scope: individual compounds
Provide only the numeric value, understood in %.

CC[C@H](C)[C@@H]1NC(=O)[C@H](Cc2ccc(O)cc2)NC(=O)CNC(=O)CC[C@@H](C(=O)N(C)CC(=O)N[C@@H](CCN)C(=O)NCC(N)=O)NC(=O)[C@H](CC(N)=O)NC(=O)[C@H](CCC(N)=O)NC1=O [Example 30] (GYIQNE[Sar][Dab]G-NH2; lactam N-6) | 119
CC[C@H](C)[C@H](NC(=O)CN(C)C(=O)[C@@H]1CCC(=O)NCC(=O)N[C@@H](Cc2ccc(O)cc2)C(=O)N[C@@H]([C@@H](C)CC)C(=O)N[C@@H](CCC(N)=O)C(=O)N[C@@H](CC(N)=O)C(=O)N1)C(=O)NCC(N)=O [Example 33] (GYIQNE[Sar]IG-NH2; lactam N-6) | 119
CC[C@H](C)[C@@H]1NC(=O)[C@H](Cc2ccc(O)cc2)NC(=O)CNC(=O)CC[C@@H](C(=O)N2CC[C@H]2C(=O)N[C@@H](CC(C)C)C(=O)NCC(N)=O)NC(=O)[C@H](CC(N)=O)NC(=O)[C@H](CCC(N)=O)NC1=O [Example 50] (GYIQNE[Aze]LG-NH2; lactam N-6) | 99

Challenge: State the recorded Emax for this entry: CC[C@H](C)[C@@H]1NC(=O)[C@H](Cc2ccc(O)cc2)NC(=O)CNC(=O)CC[C@@H](C(=O)N(C)CC(=O)NC(C)(C)C(=O)NCC(N)=O)NC(=O)[C@H](CC(N)=O)NC(=O)[C@H](CCC(N)=O)NC1=O [Example 49] (GYIQNE[Sar][Aib]G-NH2; lactam N-6)
Response given: 97

Challenge: Continue with CC[C@H](C)[C@@H]1NC(=O)[C@H](Cc2ccc(O)cc2)NC(=O)CNC(=O)CC[C@@H](C(=O)N(C)CC(=O)N[C@@H](CN)C(=O)NCC(N)=O)NC(=O)[C@H](CC(N)=O)NC(=O)[C@H](CCC(N)=O)NC1=O [Example 42] (GYIQNE[Sar][Dap]G-NH2; lactam N-6)
Response given: 119

Challenge: One more compound: CC[C@H](C)[C@@H]1NC(=O)[C@H](Cc2ccc(O)cc2)NC(=O)CNC(=O)CC[C@@H](C(=O)N(C)CC(=O)N[C@H](C(=O)NCC(N)=O)C(C)(C)C)NC(=O)[C@H](CC(N)=O)NC(=O)[C@H](CCC(N)=O)NC1=O [Example 44] (GYIQNE[Sar][Tle]G-NH2; lactam N-6)
Response given: 117

Challenge: Another: CC[C@H](C)[C@@H]1NC(=O)[C@H](Cc2ccc(O)cc2)NC(=O)CNC(=O)CC[C@@H](C(=O)N(C)CC(=O)N[C@@H](CC(C)C)C(=O)NCC(N)=O)NC(=O)[C@H](CC(N)=O)NC(=O)[C@H](C)NC1=O [Example 37] (GYIANE[Sar]LG-NH2; lactam N-6)
Response given: 137
